B1: r4_43_TrROS_Hall (parent)
chain: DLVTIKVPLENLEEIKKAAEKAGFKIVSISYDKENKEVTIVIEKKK

Variants of: B1
Assay: folding stability dG (cDNA display proteolysis); higher = more stable
Settings: PBS, room temperature
Assay metric: folding stability dG (kcal/mol)
Answer format: numeric, kcal/mol implied, no suffix.

I29Y 4.25
L12R 2.8
I26H 1.53
V41S 3.51
K17Q 3.75

Using the record for V41G , report its folding stability dG. 3.4

Using the record for V27D , report its folding stability dG. 2.75
